The reported numbers originate from patent US20190382474A1.

Form field: Kd (one value per entry).
Molecular target: T1, recombinant human IL-27 (human, UniProt Q14213 21-229; Q8NEV9 29-243)
T1 construct: Bought from R&D Systems (Cat. 2526-IL); also called hIL-27; rhIL-27
T1 sequence 1: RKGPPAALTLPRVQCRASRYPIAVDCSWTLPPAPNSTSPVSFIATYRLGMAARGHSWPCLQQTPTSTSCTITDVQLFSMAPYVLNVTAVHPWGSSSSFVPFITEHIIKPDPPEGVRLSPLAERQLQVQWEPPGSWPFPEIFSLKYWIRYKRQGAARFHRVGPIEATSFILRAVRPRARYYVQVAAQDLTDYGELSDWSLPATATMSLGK
T1 sequence 2: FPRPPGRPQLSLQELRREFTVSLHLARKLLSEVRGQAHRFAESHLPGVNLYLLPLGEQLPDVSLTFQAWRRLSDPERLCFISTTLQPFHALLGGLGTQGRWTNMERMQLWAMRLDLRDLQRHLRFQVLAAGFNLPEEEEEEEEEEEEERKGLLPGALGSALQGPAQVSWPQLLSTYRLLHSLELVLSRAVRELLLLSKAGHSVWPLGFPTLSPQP
Experiment: column 'Affinity hIL-27 (M)', property (i); method not given, paragraph 885 names SPR (BIACORE 2000)
Lab book: enter the figure in nM, no units written.

Previously resolved entries follow.
SRF405 (antibody, V domains shown, also called SRF405-A; SRF405-B) VH: QVQLVQSGAEVKKPGSSVKVSCKASGGTFVGYAISWVRQAPGQGLEWMGGIIPIFGIANYAQKFQGRVTITADESTSTAYMELSSLRSEDTAVYYCARSYYSSRWHYYYYMDVWGKGTTVTVSS VL: DIQMTQSPSSVSASVGDRVTITCRASQGISSWLAWYQQKPGKAPKLLIYAASNLQSGVPSRFSGSGSGTDFTLTISSLQPEDFATYYCQQADDLPLTFGGGTKVEIK :: 0.1
SRF410 (antibody, V domains shown, also called SRF410-A; SRF410-B) VH: QVQLVQSGAEVKKPGSSVKVSCKASGGTFSAYAISWVRQAPGQGLEWMGGIIPIFGTANYAQKFQGRVTITADESTSTAYMELSSLRSEDTAVYYCARSYYSSRWHYYYYMDVWGKGTTVTVSS VL: DIQMTQSPSSVSASVGDRVTITCRASQGISSWLAWYQQKPGKAPKLLIYAASNLQSGVPSRFSGSGSGTDFTLTISSLQPEDFATYYCQQADDLPLTFGGGTKVEIK :: 0.39
SRF573 (antibody, V domains shown) VH: QVQLVQSGAEVKKPGSSVKVSCKASGGTFSSYAISWVRQAPGQGLEWMGGIIPIFGTANYAQKFQGRVTITADESTSTAYMELSSLRSEDTAVYYCARSYYSSRWHYYYYMDVWGKGTTVTVSS VL: DIQMTQSPSSVSASVGDRVTITCRASQGISSWLAWYQQKPGKAPKLLIYAASNLQSGVPSRFSGSGSGTDFTLTISSLQPEDFATYYCQQADDLPLTFGGGTKVEIKR :: 0.74
SRF411 (antibody, V domains shown, also called SRF411-A; SRF411-B) VH: QVQLVQSGAEVKKPGSSVKVSCKASGGTFESYTISWVRQAPGQGLEWMGGIAPIFGTAHYAQKFQGRVTITADESTSTAYMELSSLRSEDTAVYYCARSYYSSRWHYYYYMDVWGKGTTVTVSS VL: DIQMTQSPSSVSASVGDRVTITCRASQGISSWLAWYQQKPGKAPKLLIYAASNLQSGVPSRFSGSGSGTDFTLTISSLQPEDFATYYCQQADDLPLTFGGGTKVEIK :: 0.43

The record that follows has no Kd shown yet.
Query :: // query Kd value for entry SRF583 (antibody, V domains shown) VH: QLQLQESGPGLVKPSETLSLTCTVSGGSISSSSYYWGWIRQPPGKGLEWIGSISYSGSTYYNPSLKSRVTISVDTSKNQFSLKLSSVTAADTAVYYCAREEYSFSYLDYWGQGTTVTVSS VL: DIQMTQSPSSVSASVGDRVTITCRASQGISSWLAWYQQKPGKAPKLLIYAASNLQSGVPSRFSGSGSGTDFTLTISSLQPEDFATYYCQQALLFPPTFGGGTKVEIKR
Result :: 1.98
